Test system: Mtb ribosome
Format: biochemical, Mycobacterium tuberculosis
Conditions: read-out: Inhibition of Mtb translation (IC50 μM)
Task for the reader: assign each of the following compounds its reported IC50.
// note: answer is a bare numeric in µM

Query block: Quick one: IC50 for CON=C1CC(C)OC(OC2C(C)CC(C)(OC(=O)NC(C)(C)CNS(=O)(=O)c3ccccc3)C(=O)C(C)C(OC(=O)CC(C)C)C(C)C(C(C)COC3OC(C)C(O)C(OC)C3OC)OC(=O)C(C)C(OC3CC(C)N(C)CC(C)O3)C2C)C1O (centres unmarked) ?
Result block: 0.075

Query block: Quick one: IC50 for CO/N=C1\C[C@@H](C)O[C@@H](O[C@@H]2[C@@H](C)[C@H](O[C@H]3C[C@@](C)(O)[C@@H](O)[C@H](C)O3)[C@@H](C)C(=O)O[C@H]([C@@H](C)CO[C@@H]3O[C@H](C)[C@@H](O)[C@@H](OC)[C@H]3OC)[C@H](C)[C@@H](OC(=O)CC(C)C)[C@@H](C)C(=O)[C@@](C)(OC(=O)NCCNS(=O)(=O)c3ccccc3[N+](=O)[O-])C[C@@H]2C)[C@@H]1O ?
Result block: 0.034

---

Tested on: Mtb H37Rv
Assay: microbe, parasite or virus in culture
Format: cell-based, Mycobacterium tuberculosis
Settings: Mycobacterium tuberculosis, H37RV; read-out: MIC for Mtb in liquid culture
readout_name: MIC (µM)
// note: answer is a bare numeric in µM

Query block: API: value(readout=MIC, system=Mtb H37Rv) for record CO/N=C1\C[C@@H](C)O[C@@H](O[C@@H]2[C@@H](C)[C@H](O[C@H]3C[C@@](C)(O)[C@@H](O)[C@H](C)O3)[C@@H](C)C(=O)O[C@H]([C@@H](C)CO[C@@H]3O[C@H](C)[C@@H](O)[C@@H](OC)[C@H]3OC)[C@H](C)[C@@H](OC(=O)CC(C)C)[C@@H](C)C(=O)[C@@](C)(OC(=O)NCc3ccccc3)C[C@@H]2C)[C@@H]1O [SEQ-416]
Result block: 0.15

Query block: API: value(readout=MIC, system=Mtb H37Rv) for record COC1C(OCC(C)C2OC(=O)C(C)C(OC3CC(C)(O)C(O)C(C)O3)C(C)C(OC3OC(C)CC(=O)C3O)C(C)CC(C)(O)C(=O)C(C)C(OC(=O)CC(C)C)C2C)OC(C)C(O)C1OC (stereo not drawn) [SEQ-503]
Result block: 1.4

Query block: API: value(readout=MIC, system=Mtb H37Rv) for record CO/N=C1\C[C@@H](C)O[C@@H](O[C@@H]2[C@@H](C)[C@H](O[C@H]3C[C@@](C)(O)[C@@H](O)[C@H](C)O3)[C@@H](C)C(=O)O[C@H]([C@@H](C)CO[C@@H]3O[C@H](C)[C@@H](O)[C@@H](OC)[C@H]3OC)[C@H](C)[C@@H](OC(=O)CC(C)C)[C@@H](C)C(=O)[C@@](C)(OC(=O)NCCNS(=O)(=O)c3ccccc3[N+](=O)[O-])C[C@@H]2C)[C@@H]1O [SEQ-977]
Result block: 0.13

---

Task for the reader: assign each of the following compounds its reported AUC.
Assay: in vivo
Details: male, Swiss, mouse, po, 30 mg/kg, AUC in lung @30 mg/kg, oral 30 mg/kg, lung

Query block: Quick one: AUC for CON=C1C[C@@H](C)O[C@@H](O[C@@H]2[C@@H](C)[C@H](O[C@H]3C[C@@H](C)N(C)C[C@H](C)O3)[C@@H](C)C(=O)O[C@H](C(C)CO[C@@H]3O[C@H](C)[C@@H](O)[C@@H](OC)[C@H]3OC)[C@H](C)[C@@H](OC(=O)CC(C)C)[C@@H](C)C(=O)[C@@](C)(OC(=O)NCc3ccccc3)C[C@@H]2C)[C@@H]1O (stereo partly drawn) [SEQ-372] ?
Result block: 18000 ng·h/mL

Query block: Quick one: AUC for CO/N=C1\C[C@@H](C)O[C@@H](O[C@@H]2[C@@H](C)[C@H](O[C@H]3C[C@@](C)(O)[C@@H](O)[C@H](C)O3)[C@@H](C)C(=O)O[C@H]([C@@H](C)CO[C@@H]3O[C@H](C)[C@@H](O)[C@@H](OC)[C@H]3OC)[C@H](C)[C@@H](OC(=O)CC(C)C)[C@@H](C)C(=O)[C@@](C)(OC(=O)NCc3ccccc3)C[C@@H]2C)[C@@H]1O [SEQ-416] ?
Result block: 4800 ng·h/mL

Query block: Quick one: AUC for CON=C1CC(C)OC(OC2C(C)CC(C)(OC(=O)NC(C)(C)CNS(=O)(=O)c3ccccc3)C(=O)C(C)C(OC(=O)CC(C)C)C(C)C(C(C)COC3OC(C)C(O)C(OC)C3OC)OC(=O)C(C)C(OC3CC(C)N(C)CC(C)O3)C2C)C1O (stereo not drawn) [SEQ-9] ?
Result block: 120000 ng·h/mL

Origin of the recorded values: paper PMC9994261
